# tested_system: kainate receptor
# method_summary: Displacement of [3H]-kainate, rat forebrain crude synaptic membranes
# setup_conditions: 50 mM Tris-acetate; 1 hour at 4° C.; FIG. 3; read-out: IC50, displacement of [3H]-kainate binding
parameter: IC50

Which IC50 value is on record for CC(=O)OC1C(C)OC(O[C@@H]2[C@H](OS(=O)(=O)O)[C@@H](COS(=O)(=O)O)O[C@H]2n2cnc3c(=O)[nH]c(N)nc32)C(O)C1O (stereo partly shown) ?
~20.7 µM

----------
# Test system: quisqualate currents in fish horizontal cells
# method_summary: Voltage clamp of quisqualate-elicited currents in fish retinal horizontal cells
# Assay type: cell-based
# setup_conditions: quisqualate 10μM; mean of three cells per dose; FIG. 5; read-out: IC50, quisqualate current
parameter: IC50

Which IC50 value is on record for CC(=O)OC1C(C)OC(O[C@@H]2[C@H](OS(=O)(=O)O)[C@@H](COS(=O)(=O)O)O[C@H]2n2cnc3c(=O)[nH]c(N)nc32)C(O)C1O (stereo partly shown) ?
~60 µM
